Origin of measurements: ChEMBL document CHEMBL6177948

# Method Notes: Stability in human serum assessed as compound remaining measured after 96 hrs by RP-HPLC analysis relative to control
# Format: ADME, cell-free
# Experimental Context: read-out: Stability
Readout Name: remaining at 96 h (%)
Number only, in %; omit the unit.

**Q:** Quick one: remaining at 96 h of COc1cc(CCC(=O)N2CCCCC2)cc(OC)c1OC(=O)c1ccccn1 ?
**A:** 86

====

# Method Notes: Half life in male Wistar rat at 50 mg/kg, ip measured after 24 hrs
# Assay type: ADME, organism-based
# Experimental Context: in vivo
Readout Name: half-life (h)
Number only, in h; omit the unit.

**Q:** Quick one: half-life of COc1cc(CCC(=O)N2CCCCC2)cc(OC)c1OC(=O)c1ccccn1 ?
**A:** 8.5
